Tested on: EKVX NSCLC
Assay: NCI tumour cell line growth inhibition, 48 h
experimental_endpoint: TGI

compound	assay_result
CC(C)=NN/C(=N\S(=O)(=O)c1cc2ccccc2s1)Nc1ccc(Cl)cc1	60.2 µM
O=C(N/N=C\c1cc(Cl)ccc1O)c1ccncc1	> 100 µM
C=C[C@H]1CN2CCc3c([nH]c4cc(O)ccc34)[C@@H]2C[C@@H]1C[C@H]1c2[nH]c3ccccc3c2CCN1C	20.1 µM
CSC1C=C(C(C)C)CCC1(C)SC (stereo unspecified)	44.7 µM
CCOC(=O)C(=O)Nc1cccc(Cl)c1C	> 100 µM
Cc1ccc(S(=O)(=O)Oc2ccccc2-c2ccccc2)cc1	> 100 µM
CCCCCCCCCC1CC(=O)Oc2cccc(O)c21 (stereo unspecified)	> 84.6 µM
COc1ccc(OC)c(Nc2nc3ccccc3c3c2-c2ccc(OC)cc2C3=O)c1	> 100 µM
Clc1ccc(C2c3ccccc3-c3nc4ccccc4n32)cc1 (stereo unspecified)	> 73.9 µM
COc1cc(C2CC(C)(N3CCCC3)Oc3cc4c(cc32)OCO4)cc(OC)c1OC (stereo unspecified)	> 100 µM
CCCOc1cc2c(cc1O)CC[C@@H]1[C@@H]2CC[C@]2(C)[C@@H](O)CC[C@@H]12	> 57.7 µM

* * *

Tested on: MOLT-4 leukemia
Assay: NCI tumour cell line growth inhibition, 48 h; in the data active = GI50 below about 0.43 µM; inactive = the rest
Outcome codes: active, inactive

molecule	cat
Clc1ccc(CN2COc3c(ccc4cccnc34)C2)cc1Cl	inactive
NC(=O)[C@@H](CCC(F)(F)F)N(Cc1ccc(-c2ncon2)cc1F)S(=O)(=O)c1ccc(Cl)cc1	inactive
COc1cc2c3c(n(CCCNCCCNCCCn4c5c(c6cc(OC)c(OC)cc6c4=O)C(=O)c4ccccc4-5)c(=O)c2cc1OC)-c1ccccc1C3=O	inactive
O=c1c2sc3ccccc3c2nnn1-c1ccc(F)c(Cl)c1	inactive
COc1cc(C(=O)/C=C/c2cc(-c3cc(OC)c(OC)c(OC)c3)n[nH]2)cc(OC)c1OC	inactive
CCCCCCC/C(=N\N=C(N)N)c1ccc(O)cc1	inactive
COc1cc2c3c(n(CCCN(C)C)c(=O)c2cc1OC)-c1cc2c(cc1C3=O)OCO2	active
c1cc2ccc3cc2cc1CNCCN1CCNCc2ccc4ccc(cc4c2)CNCCN(CCNC3)CCNCc2ccc3ccc(cc3c2)CNCC1	inactive
C[C@@H]1CCC2[C@@H](C)[C@@H](OC3CCC(O)CC3)OC3O[C@@]4(C)CCC1[C@]32OO4 (some centres undefined)	inactive

* * *

TGI by entry:
System: KM12 colon
Assay: NCI tumour cell line growth inhibition, 48 h
experimental_endpoint: TGI

compound	assay_result
CCOC(=O)c1cnc2oc(-c3ccc(OC)cc3)nn2c1=O	> 100 µM
c1cc2ccc3cc2cc1CNCCN1CCNCc2ccc4ccc(cc4c2)CNCCN(CCNC3)CCNCc2ccc3ccc(cc3c2)CNCC1	6.47 µM
O=[N+]([O-])[O][Sn]([O][Sn]([O][N+](=O)[O-])([c]1ccccc1)[c]1ccccc1)([c]1ccccc1)[c]1ccccc1	> 100 µM
CCOC(=O)C1(C(C)=O)OC(=O)c2cnccc21 (stereo unspecified)	> 100 µM
C[N+](C)(C)CC1CCc2ccccc2C1=O (stereo unspecified)	24.8 µM
O=C1/C(=C/c2ccc(Cl)cc2)CCC/C1=C\c1ccc(O)c(CN2CCCCC2)c1	16.7 µM

* * *

System: OVCAR-4 ovarian
Assay: NCI tumour cell line growth inhibition, 48 h
Recorded TGI for the following compounds

compound	tested_on	TGI
O=c1cc(N2CCOCC2)oc2c(-c3ccc4c(c3)OCCO4)csc12	OVCAR-4 ovarian	> 61.9 µM
C[C@]12CC[C@H](O)C[C@@H]1CC[C@@H]1[C@@H]2CC[C@]2(C)[C@@H](c3cc(C(F)(F)F)n[nH]3)CC[C@@H]12	OVCAR-4 ovarian	20.2 µM
Cc1cc(Br)ccc1NC1=CC(=O)C(=O)c2ccccc21	OVCAR-4 ovarian	31.1 µM
O=C1CCC(=O)N1CNc1cccc(NCN2C(=O)CCC2=O)c1	OVCAR-4 ovarian	> 100 µM
N#Cc1ccccc1C#C/C=C\C#Cc1cccs1	OVCAR-4 ovarian	> 100 µM
C/C1=C/C2OC(=O)C3(C)C2C(CC2(C)OC1=CC2=O)OC3(O)C(C)C (stereo not drawn)	OVCAR-4 ovarian	> 55.3 µM
Cc1cc(C)n(-c2nc3ccccc3c(=O)[nH]2)n1	OVCAR-4 ovarian	> 100 µM
O=[N+]([O-])c1ccc(/C(=C\c2ccccc2)Cn2ccnc2)cc1	OVCAR-4 ovarian	> 100 µM
CC1=C2[C@H]3OC(=O)[C@@H](C)[C@@H]3CC[C@@]2(C)C=CC1=O	OVCAR-4 ovarian	> 100 µM
CC(=O)N(C)C=C1C(=O)N(C)C(=O)N(C)C1=O	OVCAR-4 ovarian	> 100 µM
CCN1C(Cl)=NS(=O)(=O)c2ccccc21	OVCAR-4 ovarian	47.8 µM
CCOC(=O)[C@@]12C(C)=CC(=O)O[C@]1(C)C[C@H]2C#N	OVCAR-4 ovarian	> 100 µM
O=c1c2ccccc2sc2nc(CCl)nn12	OVCAR-4 ovarian	> 100 µM
COc1ccc(O)cc1C=O	OVCAR-4 ovarian	> 100 µM
COc1cc2c(cc1OCCCCOc1cc3nc(C)nc(Cl)c3cc1OC)N=C[C@@H]1CCCN1C2=O	OVCAR-4 ovarian	11.1 µM
Cc1nc2c(n1-c1ccc(Br)cc1)C(=O)c1ccccc1C2=O	OVCAR-4 ovarian	> 100 µM
COC(=O)N1c2ccc3c(nc(Cc4ccccc4)n3[C@H]3CCC[C@H](C(=O)O)C3)c2CC[C@@H]1C	OVCAR-4 ovarian	> 100 µM
CN1N=C(c2ccncc2)OC1c1ccc(Cl)cc1Cl (stereo not drawn)	OVCAR-4 ovarian	> 100 µM
C[n+]1cn(-c2ccc([N+](=O)[O-])cn2)c2ccccc21	OVCAR-4 ovarian	> 100 µM
O=c1[nH]cnc2c1cnn2Cc1cn(COCC(O)CO)nn1 (stereo not drawn)	OVCAR-4 ovarian	> 100 µM
CCCCCCCCCCCCCCNc1nc(C(=O)OCC)ncc1-c1ccc(C(F)(F)F)cc1	OVCAR-4 ovarian	> 100 µM
COC(=O)[C@@H](NC1(c2ccccc2)c2ccccc2-c2ccccc21)[C@H](OC(=O)[C@H]1CCCN1S(=O)(=O)c1ccccc1)C(=O)OC	OVCAR-4 ovarian	> 100 µM
CCOC(=O)C(C(N)=O)c1nc2cc([N+](=O)[O-])ccc2nc1/C=C(\O)c1ccccc1 (stereo not drawn)	OVCAR-4 ovarian	34.7 µM
O=C(O)c1cccc(CN2CCCCC2)c1	OVCAR-4 ovarian	> 100 µM
COc1cccc(-c2cc(=O)c3cc(NC(C)=O)ccc3[nH]2)c1	OVCAR-4 ovarian	> 100 µM
Cc1c(CN)c(C)c(CN)c(C)c1CN	OVCAR-4 ovarian	> 100 µM
O=C1NC(=O)C2C1c1[nH]c3ccccc3c1C1CCCC12 (stereo not drawn)	OVCAR-4 ovarian	> 100 µM
CCOC1c2cc(OC)c(OC)cc2-c2ccc3ccccc3c2N1C (stereo not drawn)	OVCAR-4 ovarian	54.5 µM
CC(C)(C)c1ccc2c(c1)S(=O)(=O)Nc1cccc(c1)NS(=O)(=O)c1cc(C(C)(C)C)ccc1OCCOCCO2	OVCAR-4 ovarian	> 100 µM
O=C(O)c1cc2cc(OCc3ccccc3)ccc2[nH]1	OVCAR-4 ovarian	> 100 µM
O=c1c2sc3ccccc3c2nnn1-c1ccc(F)c(Cl)c1	OVCAR-4 ovarian	> 100 µM
N#Cc1c(C#N)c(SSc2c(C#N)c(C#N)c(N)n2-c2ccc(F)cc2)n(-c2ccc(F)cc2)c1N	OVCAR-4 ovarian	> 100 µM
COc1ccc2c(c1)-c1c(c3cc(OC)ccc3n1CCN1CCOCC1)CC2	OVCAR-4 ovarian	> 100 µM
CC(C)(C)c1ccc(-n2c3nc(=O)n(-c4ccccc4C(F)(F)F)c(=O)c-3cc3ccccc32)cc1	OVCAR-4 ovarian	> 100 µM
NCCSCC(N)C(=O)O (stereo not drawn)	OVCAR-4 ovarian	> 497 µM
CC(O)C1(CNc2cc(Cl)nc(N)n2)CCCC1 (stereo not drawn)	OVCAR-4 ovarian	> 100 µM
COc1nc(C(=O)O)c(Cl)c(OC)c1Cl	OVCAR-4 ovarian	> 100 µM
O=C(CC1(O)C(=O)N(Cc2ccccc2)c2ccc(Br)cc21)c1ccc(C(=O)NCC2CCC3(CC2)OOC2(CCCCC2)OO3)cc1 (stereo not drawn)	OVCAR-4 ovarian	16.3 µM
CC(C)(C)OC(=O)CCC1NC(=O)[C@@H]2Cc3c([nH]c4ccccc34)C(C3CCCCC3)N2C1=O (stereo partly drawn)	OVCAR-4 ovarian	> 100 µM
O=C(Cc1nc2cccnc2nc1/C=C(\O)c1ccccc1)c1ccccc1	OVCAR-4 ovarian	> 100 µM
Cc1ccc(NC(=O)CSc2nnc(Cc3ccccc3)o2)c(C)c1	OVCAR-4 ovarian	> 100 µM
COc1cc2c3c(n(CCCN(C)C)c(=O)c2cc1OC)-c1cc2c(cc1C3=O)OCO2	OVCAR-4 ovarian	2.88 µM
N#Cc1c(-c2ccc(Cl)cc2)cc(-c2cc(O)ccc2O)nc1N	OVCAR-4 ovarian	2.2 µM
